Recorded values, source patent US5643917A.

- assayedSystem: 5-HT3 receptors (Mus musculus, UniProt P23979)
- Construct: endogenous in cells
- Sequence (P23979 24-489): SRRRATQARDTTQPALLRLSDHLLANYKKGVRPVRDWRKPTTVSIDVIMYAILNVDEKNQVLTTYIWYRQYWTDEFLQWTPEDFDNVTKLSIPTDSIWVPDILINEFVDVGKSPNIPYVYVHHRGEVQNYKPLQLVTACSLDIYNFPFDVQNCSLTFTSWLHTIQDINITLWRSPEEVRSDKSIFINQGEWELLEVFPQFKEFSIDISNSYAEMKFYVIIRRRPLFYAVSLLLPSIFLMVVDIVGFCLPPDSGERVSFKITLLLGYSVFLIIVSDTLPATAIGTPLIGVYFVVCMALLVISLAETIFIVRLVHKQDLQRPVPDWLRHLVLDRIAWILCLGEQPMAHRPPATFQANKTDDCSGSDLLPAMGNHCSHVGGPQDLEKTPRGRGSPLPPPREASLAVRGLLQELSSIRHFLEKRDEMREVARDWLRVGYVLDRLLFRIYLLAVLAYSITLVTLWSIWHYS
- experimentalDetails: Serotonin 5-HT3 receptor binding assay, [3H]GR65630, NG108-15 membranes
- conditions: Ki (5-HT3 receptors), [3H]GR65630 1 nM, NG108-15 membranes, 25° C.; apparent Ki calculated from IC50
Structures can show the parent of a compound that is named as a salt.
reportedEndpoint: Ki (nM)
One number for each entry, in nM.

>>> df
                                   compound  reportedendpoint  experimentalvalue
0  COc1cc(N)c(Cl)cc1C(=O)NCC1C2CC3CC1CN(C3)C2 (centres unmarked) [Example 2, hydrochloride]                Ki                144

Consider the additional compound presented here.
Q: Would you kindly share the measured Ki for COc1cc(N)c(Cl)cc1C(=O)NCC1C2CC3CC1CN(C3)C2 (centres unmarked) [Example 4, hydrochloride] ?
A: 25.7
